Reported Ratio Ki by item:
Study Target: Serine protease 1 (Bos taurus)
Sequence (whole entry): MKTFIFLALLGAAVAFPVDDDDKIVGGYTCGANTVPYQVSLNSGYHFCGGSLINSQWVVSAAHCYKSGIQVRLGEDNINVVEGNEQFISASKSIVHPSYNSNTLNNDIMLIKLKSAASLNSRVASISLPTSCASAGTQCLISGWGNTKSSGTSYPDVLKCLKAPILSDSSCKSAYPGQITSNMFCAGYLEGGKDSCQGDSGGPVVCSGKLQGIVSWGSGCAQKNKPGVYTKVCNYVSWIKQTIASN
Experiment Summary: Potency index, ratio of SFTI-1 Ki to test compound Ki for bovine beta-trypsin
Where a SMILES comes first, the peptide text is derived from it. Bridges are numbered along the chain shown (N, C = ends). [ ]: non-standard residue; d: D form. Bip = N[C@@H](Cc1ccc(-c2ccccc2)cc1)C(=O)O; 2Nal = N[C@@H](Cc1ccc2ccccc2c1)C(=O)O
Form field (numeric): enter value without unit.

Some solved entries appear below for comparison.
{"Molecule": "CC[C@H](C)[C@@H]1NC(=O)[C@@H]2CCCN2C(=O)[C@@H]2CCCN2C(=O)[C@H](Cc2ccc(-c3ccccc3)cc2)NC(=O)[C@H](CO)NC(=O)[C@H](CCCNC(=N)N)NC(=O)[C@H]([C@@H](C)O)NC(=O)[C@@H]2CSSC[C@H](NC1=O)C(=O)N[C@@H](Cc1ccccc1)C(=O)N1CCC[C@H]1C(=O)N[C@@H](CC(=O)O)C(=O)NCC(=O)N[C@@H](CCCNC(=N)N)C(=O)N2 (cyclo([Bip]PPICFPDGRCTRS); disulfide 5-11)", "Ratio Ki": 21}
{"Molecule": "CC[C@H](C)[C@@H]1NC(=O)[C@@H]2CCCN2C(=O)[C@@H]2CCCN2C(=O)CNC(=O)[C@H](CO)NC(=O)[C@H](CCCCN)NC(=O)[C@H]([C@@H](C)O)NC(=O)[C@@H]2CSSC[C@H](NC1=O)C(=O)N[C@@H](Cc1ccccc1)C(=O)N1CCC[C@H]1C(=O)N[C@@H](CC(=O)O)C(=O)NCC(=O)N[C@@H](CCCNC(=N)N)C(=O)N2 (cyclo(CFPDGRCTKSGPPI); disulfide 1-7)", "Ratio Ki": 10100}
{"Molecule": "CC[C@H](C)[C@@H]1NC(=O)[C@@H]2CCCN2C(=O)[C@@H]2CCCN2C(=O)CNC(=O)[C@H](CO)NC(=O)[C@H](CCCNC(=N)N)NC(=O)[C@H]([C@@H](C)O)NC(=O)[C@@H]2CSSC[C@H](NC1=O)C(=O)N[C@@H](Cc1ccccc1)C(=O)N1CCC[C@H]1C(=O)N[C@@H](CC(=O)O)C(=O)NCC(=O)N[C@@H](CCCNC(=N)N)C(=O)N2 (cyclo(CFPDGRCTRSGPPI); disulfide 1-7)", "Ratio Ki": 24500}
{"Molecule": "CC[C@H](C)[C@@H]1NC(=O)[C@@H]2CCCN2C(=O)[C@@H]2CCCN2C(=O)[C@H](Cc2ccc3ccccc3c2)NC(=O)[C@H](CO)NC(=O)[C@H](CCCNC(=N)N)NC(=O)[C@H]([C@@H](C)O)NC(=O)[C@@H]2CSSC[C@H](NC1=O)C(=O)N[C@@H](Cc1ccccc1)C(=O)N1CCC[C@H]1C(=O)N[C@@H](CC(=O)O)C(=O)NCC(=O)N[C@@H](CCCNC(=N)N)C(=O)N2 (cyclo([2Nal]PPICFPDGRCTRS); disulfide 5-11)", "Ratio Ki": 29}
{"Molecule": "CC[C@H](C)[C@@H]1NC(=O)[C@@H]2CCCN2C(=O)[C@@H]2CCCN2C(=O)[C@H](Cc2ccc3ccccc3c2)NC(=O)[C@H](CO)NC(=O)[C@H](CCCCN)NC(=O)[C@H]([C@@H](C)O)NC(=O)[C@@H]2CSSC[C@H](NC1=O)C(=O)N[C@@H](Cc1ccccc1)C(=O)N1CCC[C@H]1C(=O)N[C@@H](CC(=O)O)C(=O)NCC(=O)N[C@@H](CCCNC(=N)N)C(=O)N2 (cyclo([2Nal]PPICFPDGRCTKS); disulfide 5-11)", "Ratio Ki": 6}

Consider now this further molecule.
Input line: Look up and report measured Ratio Ki for this entry: CC[C@H](C)[C@@H]1NC(=O)[C@@H]2CCCN2C(=O)[C@@H]2CCCN2C(=O)[C@H](Cc2ccc(-c3ccccc3)cc2)NC(=O)[C@H](CO)NC(=O)[C@H](CCCCN)NC(=O)[C@H]([C@@H](C)O)NC(=O)[C@@H]2CSSC[C@H](NC1=O)C(=O)N[C@@H](Cc1ccccc1)C(=O)N1CCC[C@H]1C(=O)N[C@@H](CC(=O)O)C(=O)NCC(=O)N[C@@H](CCCNC(=N)N)C(=O)N2 (cyclo([Bip]PPICFPDGRCTKS); disulfide 5-11)
Output line: 8

* * *

Study Target: UniProt:P00760
Sequence (P00760 whole entry): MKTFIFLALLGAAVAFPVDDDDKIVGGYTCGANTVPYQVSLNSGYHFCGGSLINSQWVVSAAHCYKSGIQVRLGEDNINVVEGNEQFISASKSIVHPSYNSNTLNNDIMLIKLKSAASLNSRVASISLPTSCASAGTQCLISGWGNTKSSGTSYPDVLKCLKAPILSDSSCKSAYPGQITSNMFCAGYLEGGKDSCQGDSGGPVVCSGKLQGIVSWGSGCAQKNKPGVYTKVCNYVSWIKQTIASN
Where a SMILES comes first, the peptide text is derived from it. Bridges are numbered along the chain shown (N, C = ends). [ ]: non-standard residue; d: D form. Bip = N[C@@H](Cc1ccc(-c2ccccc2)cc1)C(=O)O; 2Nal = N[C@@H](Cc1ccc2ccccc2c1)C(=O)O
Reported Ki by item:
Express the result in nM but write the number alone.

Some solved entries appear below for comparison.
{"Compound": "CC[C@H](C)[C@@H]1NC(=O)[C@@H]2CCCN2C(=O)[C@@H]2CCCN2C(=O)[C@H](Cc2ccc3ccccc3c2)NC(=O)[C@H](CO)NC(=O)[C@H](CCCCN)NC(=O)[C@H]([C@@H](C)O)NC(=O)[C@@H]2CSSC[C@H](NC1=O)C(=O)N[C@@H](Cc1ccccc1)C(=O)N1CCC[C@H]1C(=O)N[C@@H](CC(=O)O)C(=O)NCC(=O)N[C@@H](CCCNC(=N)N)C(=O)N2 (cyclo([2Nal]PPICFPDGRCTKS); disulfide 5-11)", "Ki / nM": 0.046}
{"Compound": "CC[C@H](C)[C@@H]1NC(=O)[C@@H]2CCCN2C(=O)[C@@H]2CCCN2C(=O)[C@H](Cc2ccc(-c3ccccc3)cc2)NC(=O)[C@H](CO)NC(=O)[C@H](CCCCN)NC(=O)[C@H]([C@@H](C)O)NC(=O)[C@@H]2CSSC[C@H](NC1=O)C(=O)N[C@@H](Cc1ccccc1)C(=O)N1CCC[C@H]1C(=O)N[C@@H](CC(=O)O)C(=O)NCC(=O)N[C@@H](CCCNC(=N)N)C(=O)N2 (cyclo([Bip]PPICFPDGRCTKS); disulfide 5-11)", "Ki / nM": 0.062}

Input line: Look up and report measured Ki for this entry: CC[C@H](C)[C@@H]1NC(=O)[C@@H]2CCCN2C(=O)[C@@H]2CCCN2C(=O)[C@H](Cc2ccc3ccccc3c2)NC(=O)[C@H](CO)NC(=O)[C@H](CCCNC(=N)N)NC(=O)[C@H]([C@@H](C)O)NC(=O)[C@@H]2CSSC[C@H](NC1=O)C(=O)N[C@@H](Cc1ccccc1)C(=O)N1CCC[C@H]1C(=O)N[C@@H](CC(=O)O)C(=O)NCC(=O)N[C@@H](CCCNC(=N)N)C(=O)N2 (cyclo([2Nal]PPICFPDGRCTRS); disulfide 5-11)
Output line: 0.23

* * *

Study Target: Trypsin-3 (Homo sapiens)
Sequence (whole entry): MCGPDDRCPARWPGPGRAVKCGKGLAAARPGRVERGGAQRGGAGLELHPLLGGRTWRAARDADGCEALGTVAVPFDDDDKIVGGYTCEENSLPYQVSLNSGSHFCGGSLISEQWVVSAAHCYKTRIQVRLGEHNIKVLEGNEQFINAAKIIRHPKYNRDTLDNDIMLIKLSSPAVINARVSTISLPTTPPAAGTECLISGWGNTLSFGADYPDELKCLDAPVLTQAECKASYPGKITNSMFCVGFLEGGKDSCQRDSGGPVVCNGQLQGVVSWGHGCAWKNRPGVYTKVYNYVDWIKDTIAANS
Experiment Summary: Potency index, ratio of SFTI-1 Ki to test compound Ki for recombinant human mesotrypsin
Where a SMILES comes first, the peptide text is derived from it. Bridges are numbered along the chain shown (N, C = ends). [ ]: non-standard residue; d: D form. Bip = N[C@@H](Cc1ccc(-c2ccccc2)cc1)C(=O)O
Reported Ratio Ki by item:
Form field (numeric): enter value without unit.

Input line: Look up and report measured Ratio Ki for this entry: CC[C@H](C)[C@@H]1NC(=O)[C@@H]2CCCN2C(=O)[C@@H]2CCCN2C(=O)[C@H](Cc2ccc(-c3ccccc3)cc2)NC(=O)[C@H](CO)NC(=O)[C@H](CCCNC(=N)N)NC(=O)[C@H]([C@@H](C)O)NC(=O)[C@@H]2CSSC[C@H](NC1=O)C(=O)N[C@@H](Cc1ccccc1)C(=O)N1CCC[C@H]1C(=O)N[C@@H](CC(=O)O)C(=O)NCC(=O)N[C@@H](CCCNC(=N)N)C(=O)N2 (cyclo([Bip]PPICFPDGRCTRS); disulfide 5-11)
Output line: 177

Input line: Look up and report measured Ratio Ki for this entry: CC[C@H](C)[C@@H]1NC(=O)[C@@H]2CCCN2C(=O)[C@@H]2CCCN2C(=O)CNC(=O)[C@H](CO)NC(=O)[C@H](CCCCN)NC(=O)[C@H]([C@@H](C)O)NC(=O)[C@@H]2CSSC[C@H](NC1=O)C(=O)N[C@@H](Cc1ccccc1)C(=O)N1CCC[C@H]1C(=O)N[C@@H](CC(=O)O)C(=O)NCC(=O)N[C@@H](CCCNC(=N)N)C(=O)N2 (cyclo(CFPDGRCTKSGPPI); disulfide 1-7)
Output line: 37

Input line: Look up and report measured Ratio Ki for this entry: CC[C@H](C)[C@@H]1NC(=O)[C@@H]2CCCN2C(=O)[C@@H]2CCCN2C(=O)[C@H](CC(=O)O)NC(=O)[C@H](CO)NC(=O)[C@H](CCCCN)NC(=O)[C@H]([C@@H](C)O)NC(=O)[C@@H]2CSSC[C@H](NC1=O)C(=O)N[C@@H](Cc1ccccc1)C(=O)N1CCC[C@H]1C(=O)N[C@@H](CC(=O)O)C(=O)NCC(=O)N[C@@H](CCCNC(=N)N)C(=O)N2 (cyclo(CFPDGRCTKSDPPI); disulfide 1-7)
Output line: 12

Input line: Look up and report measured Ratio Ki for this entry: CC[C@H](C)[C@@H]1NC(=O)[C@@H]2CCCN2C(=O)[C@@H]2CCCN2C(=O)[C@H](Cc2ccc(-c3ccccc3)cc2)NC(=O)[C@H](CO)NC(=O)[C@H](CCCCN)NC(=O)[C@H]([C@@H](C)O)NC(=O)[C@@H]2CSSC[C@H](NC1=O)C(=O)N[C@@H](Cc1ccccc1)C(=O)N1CCC[C@H]1C(=O)N[C@@H](CC(=O)O)C(=O)NCC(=O)N[C@@H](CCCNC(=N)N)C(=O)N2 (cyclo([Bip]PPICFPDGRCTKS); disulfide 5-11)
Output line: 142

Input line: Look up and report measured Ratio Ki for this entry: CC[C@H](C)[C@@H]1NC(=O)[C@@H]2CCCN2C(=O)[C@@H]2CCCN2C(=O)[C@H](CO)NC(=O)[C@H](CO)NC(=O)[C@H](CCCCN)NC(=O)[C@H]([C@@H](C)O)NC(=O)[C@@H]2CSSC[C@H](NC1=O)C(=O)N[C@@H](Cc1ccccc1)C(=O)N1CCC[C@H]1C(=O)N[C@@H](CC(=O)O)C(=O)NCC(=O)N[C@@H](CCCNC(=N)N)C(=O)N2 (cyclo(CFPDGRCTKSSPPI); disulfide 1-7)
Output line: 15
